# Target Or Test System: human prostaglandin E2 (subtype EP2) receptor (Homo sapiens, UniProt P43116)
# Construct: host or cells: cells on a cell culture plate
# Sequence (P43116 whole entry): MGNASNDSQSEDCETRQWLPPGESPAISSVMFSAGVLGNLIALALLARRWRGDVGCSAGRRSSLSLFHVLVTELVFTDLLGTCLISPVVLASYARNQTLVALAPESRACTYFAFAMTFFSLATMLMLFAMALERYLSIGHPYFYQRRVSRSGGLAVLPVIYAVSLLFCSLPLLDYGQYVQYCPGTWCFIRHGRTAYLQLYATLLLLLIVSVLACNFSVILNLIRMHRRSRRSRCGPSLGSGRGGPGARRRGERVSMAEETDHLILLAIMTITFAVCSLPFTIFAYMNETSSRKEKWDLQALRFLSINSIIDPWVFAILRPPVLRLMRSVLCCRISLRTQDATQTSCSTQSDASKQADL
# Protocol Notes: cAMP antagonism assay (HTRF cAMP, PGE2-stimulated cells)
# Assay type: cell-based
# Protocol Conditions: cAMP assay in presence of PGE2; read-out: Antagonism [IC50
Exercise: state measured IC50 for each of the compounds provided.
Give bare numbers, in nM.

> print(dat)
                                   compound  unit.annotation  quantitative.readout
1  O=C(NC1CCN(c2nncc3ccc(Br)cc23)CC1)c1cccc(Cl)c1Cl [Example 1]               nM                   300

I need IC50 for every entry listed below, if you could help.
1. Cc1nnc(N2CCC(NC(=O)c3cccc(Cl)c3Cl)CC2)c2cc(Br)ccc12 [Example 3]
2. Cc1nnc(N2CCC(NC(=O)c3cccc(Cl)c3Cl)CC2)c2ccc(Br)cc12 [Example 4]

700
500
